Where do the numbers come from? From paper PMC12169104.

experiment: Dynamic light scattering (DLS) of SSA aggregates
Assay type: physicochemical
conditions_used: DLS, 0.28 mM, EtOH:H2O 1:19
endpoint_name: PDI

| given_smiles | PDI |
| --- | --- |
| O=S(=O)(O)CCCNC(=S)Nc1ccc(C(F)(F)F)cc1 | 0.0602 |
| O=C(O)CNc1c(Nc2ccc(C(F)(F)F)cc2)c(=O)c1=O | 0.0547 |

a = O=c1c(NCCCS(=O)(=O)O)c(Nc2ccc(C(F)(F)F)cc2)c1=O
b = Cc1ccc2nc(-c3ccc(NC(=O)NCS(=O)(=O)O)cc3)sc2c1
c = O=C(O)CNC(=S)Nc1ccc(C(F)(F)F)cc1
Reorder the items by PDI, least to greatest. To answer, arrange all of the labels according to the requested order.
c, a, b
(c: 0.0160, a: 0.0452, b: 0.0863)

----------
// reported EC50 per item
experiment: Calcein loaded vesicle leakage (lysis) assay
conditions_used: PE:PG 1:1 vesicles, 1 min (Timepoint 1 in Table S14), 298 K, PBS buffer 5% EtOH
Method: To gauge the activity and selectivity of 1–5 and a–j against microbial membranes, a series of synthetic model vesicle systems were prepared, containing a variety of common bacterial membrane phospholipid headgroups: (i) phosphatidylglycerol (PG) only; (ii) phosphatidylethanolamine (PE) : PG 3 : 1 and; (iii) PE : PG 1 : 1.[50] […] Figure S168 – Average (n=3) […] readings of calcein loaded PE:PG 3:1 lipid vesicles (λem = 515 nm) following the addition of j at varying concentrations. […]

| molecule | endpoint_name | reported_result |
| --- | --- | --- |
| O=c1c(NCCCS(=O)(=O)O)c(Nc2ccc(C(F)(F)F)cc2)c1=O [SSA 4] | EC50 | > 1.5 mM |

Consider the molecule O=C(O)CNc1c(Nc2ccc(C(F)(F)F)cc2)c(=O)c1=O [SSA 5] and give its measured EC50.
> 1.5 mM

Consider the molecule O=C(O)CNC(=S)Nc1ccc(C(F)(F)F)cc1 [SSA 2] and give its measured EC50.
> 1.5 mM

Consider the molecule Cc1ccc2nc(-c3ccc(NC(=O)NCS(=O)(=O)O)cc3)sc2c1 [SSA 3] and give its measured EC50.
> 1.5 mM

----------
experiment: Protein binding in human plasma by equilibrium dialysis
Format: in vitro ADME
conditions_used: pH 7.4; human plasma proteins, 5 µM, 6 hours incubation at 37 °C; read-out: % Bound (converted)
endpoint_name: fraction unbound at 6 h, 5 µM
Form field (numeric): enter value without unit.

Consider the compound O=C(O)CNc1c(Nc2ccc(C(F)(F)F)cc2)c(=O)c1=O and give its measured fraction unbound at 6 h, 5 µM.
0.076

----------
experiment: Calcein loaded vesicle leakage (lysis) assay
conditions_used: PG vesicles, 1 min (Timepoint 1 in Table S12), 298 K, PBS buffer 5% EtOH, total molar concentration
endpoint_name: EC50 (mM)

| compound | uom | EC50 |
| --- | --- | --- |
| Cc1ccc2nc(-c3ccc(NC(=O)NCS(=O)(=O)O)cc3)sc2c1 [SSA 3] | mM | 0.867 |

A = O=S(=O)(O)CCCNC(=S)Nc1ccc(C(F)(F)F)cc1 [SSA 1]
B = O=c1c(NCCCS(=O)(=O)O)c(Nc2ccc(C(F)(F)F)cc2)c1=O [SSA 4]
Which value of EC50 is smaller, the one for A or the one for B ? Label of pick, please.
A

----------
experiment: Calcein loaded vesicle leakage (lysis) assay
conditions_used: PE:PG 3:1 vesicles, 1 min (Timepoint 1 in Table S13), 298 K, PBS buffer 5% EtOH
// reported EC50 per item

| given_smiles | reported_result |
| --- | --- |
| O=S(=O)(O)CCCNC(=S)Nc1ccc(C(F)(F)F)cc1 | 0.0302 mM |
| O=c1c(NCCCS(=O)(=O)O)c(Nc2ccc(C(F)(F)F)cc2)c1=O | > 1.5 mM |
| O=C(O)CNC(=S)Nc1ccc(C(F)(F)F)cc1 | > 1.5 mM |

Consider the compound Cc1ccc2nc(-c3ccc(NC(=O)NCS(=O)(=O)O)cc3)sc2c1 and give its measured EC50.
> 1.5 mM

Consider the compound O=C(O)CNc1c(Nc2ccc(C(F)(F)F)cc2)c(=O)c1=O and give its measured EC50.
> 1.5 mM

----------
experiment: Dynamic light scattering (DLS) of SSA aggregates
Format: physicochemical
conditions_used: DLS average intensity particle size distribution, 0.28 mM, EtOH:H2O 1:19
Text: DLS studies: All vials used for preparing the samples were clean and dry. All solvents used were filtered to remove any particulates that may interfere with the results obtained. Samples of differing concentrations were obtained through serial dilution of a concentrated solution. All samples underwent an annealing process, in which they were heated to 313 K before being allowed to cool to 298 K to allow each sample to reach a thermodynamic minimum. […]
endpoint_name: Peak 2 (nm)

| given_smiles | Peak 2 (nm) |
| --- | --- |
| O=S(=O)(O)CCCNC(=S)Nc1ccc(C(F)(F)F)cc1 | 100.61 |

A = O=C(O)CNC(=S)Nc1ccc(C(F)(F)F)cc1
B = Cc1ccc2nc(-c3ccc(NC(=O)NCS(=O)(=O)O)cc3)sc2c1
Which value of Peak 2 (nm) is smaller, the one for A or the one for B ? Label of pick, please.
B

----------
experiment: Quantitative 1H NMR spectroscopy (higher order self-association)
Format: physicochemical
conditions_used: D2O:EtOH 19:1, 2.78 mM, 298 K; proportion of compound to become NMR silent
endpoint_name: Quantitative 1H NMR (%) Anion

| compound | Quantitative 1H NMR (%) Anion |
| --- | --- |
| O=S(=O)(O)CCCNC(=S)Nc1ccc(C(F)(F)F)cc1 [SSA 1] | 33 |
| O=c1c(NCCCS(=O)(=O)O)c(Nc2ccc(C(F)(F)F)cc2)c1=O [SSA 4] | 44 |
| O=C(O)CNc1c(Nc2ccc(C(F)(F)F)cc2)c(=O)c1=O [SSA 5] | 33 |
| Cc1ccc2nc(-c3ccc(NC(=O)NCS(=O)(=O)O)cc3)sc2c1 [SSA 3] | 37 |
| O=C(O)CNC(=S)Nc1ccc(C(F)(F)F)cc1 [SSA 2] | 43 |

----------
experiment: Metabolic stability in liver microsomes
Assay type: in vitro ADME, human
conditions_used: liver microsomes; human microsomes, 1 µM; read-out: In vitro T1/2
endpoint_name: half-life at 1 µM

Consider the molecule O=C(O)CNc1c(Nc2ccc(C(F)(F)F)cc2)c(=O)c1=O and give its measured half-life at 1 µM.
> 3.08 h

----------
experiment: Dynamic light scattering (DLS) of SSA aggregates
Type: physicochemical
conditions_used: polydispersity index of DLS dH, 2.78 mM, EtOH:H2O 1:19
endpoint_name: PDI

A = Cc1ccc2nc(-c3ccc(NC(=O)NCS(=O)(=O)O)cc3)sc2c1
B = O=S(=O)(O)CCCNC(=S)Nc1ccc(C(F)(F)F)cc1
Which value of PDI is smaller, the one for A or the one for B ? Label of pick, please.
B

----------
experiment: Metabolic stability in liver microsomes
Assay type: in vitro ADME, mouse
conditions_used: liver microsomes; mouse microsomes, 1 µM; read-out: In vitro T1/2
Protocol: Section S5: In vitro and in vivo studies These studies were performed by Contract Research Organisation (CRO) Pharmaron. The methodology provided within the ESI is published within the express permission of this organisation. The percentage of a compound recovered during the analysis process should be 100 %; any deviation from this value indicates experimental limitations such as unintended potential non-specific binding events to experimental equipment, solubility issues, etc. […]
endpoint_name: half-life at 1 µM

Consider the compound O=C(O)CNc1c(Nc2ccc(C(F)(F)F)cc2)c(=O)c1=O and give its measured half-life at 1 µM.
> 3.08 h

----------
experiment: Calcein loaded vesicle leakage (lysis) assay
conditions_used: PE:PG 3:1 vesicles, 20 min (Timepoint 5 in Table S13), 298 K, PBS buffer 5% EtOH
endpoint_name: EC50 (mM)

| given_smiles | EC50 [mM] |
| --- | --- |
| O=c1c(NCCCS(=O)(=O)O)c(Nc2ccc(C(F)(F)F)cc2)c1=O | 0.91 |

P = O=C(O)CNC(=S)Nc1ccc(C(F)(F)F)cc1
Q = O=C(O)CNc1c(Nc2ccc(C(F)(F)F)cc2)c(=O)c1=O
Which value of EC50 is smaller, the one for P or the one for Q ? Label of pick, please.
Q

----------
experiment: In vivo pharmacokinetic study, intravenous
Design: species or system female CD-1 mice
conditions_used: mouse, whole blood; terminal half-life, IV 1 mg/kg, female CD-1 mice
endpoint_name: half-life (min)
Reply with just the number (in min).

Consider the compound O=C(O)CNc1c(Nc2ccc(C(F)(F)F)cc2)c(=O)c1=O and give its measured half-life.
43.8

----------
experiment: 1H NMR DOSY, hydrodynamic diameter of SSA anion
Type: physicochemical
conditions_used: DMSO-d6/0.5 % H2O, 298 K
endpoint_name: dH (nm) of SSA anion, 1H NMR DOSY

| molecule | uom | dH (nm) of SSA anion, 1H NMR DOSY |
| --- | --- | --- |
| O=C(O)CNC(=S)Nc1ccc(C(F)(F)F)cc1 [SSA 2] | nm | 1.42 |
| Cc1ccc2nc(-c3ccc(NC(=O)NCS(=O)(=O)O)cc3)sc2c1 [SSA 3] | nm | 1.64 |
| O=c1c(NCCCS(=O)(=O)O)c(Nc2ccc(C(F)(F)F)cc2)c1=O [SSA 4] | nm | 1.65 |
| O=C(O)CNc1c(Nc2ccc(C(F)(F)F)cc2)c(=O)c1=O [SSA 5] | nm | 1.61 |
| O=S(=O)(O)CCCNC(=S)Nc1ccc(C(F)(F)F)cc1 [SSA 1] | nm | 1.50 |
